Catalogue of IC50 values
target: AhR (Homo sapiens (Human)); assay: AhR antagonism in U937 cells (Promega P450-Glo assay); settings: inhibition of agonist (KYNA) response, CYP1A1 activity readout (Luciferin-CEE), 24 hrs, arithmetic mean of pIC50
Sequence (P35869 11-848): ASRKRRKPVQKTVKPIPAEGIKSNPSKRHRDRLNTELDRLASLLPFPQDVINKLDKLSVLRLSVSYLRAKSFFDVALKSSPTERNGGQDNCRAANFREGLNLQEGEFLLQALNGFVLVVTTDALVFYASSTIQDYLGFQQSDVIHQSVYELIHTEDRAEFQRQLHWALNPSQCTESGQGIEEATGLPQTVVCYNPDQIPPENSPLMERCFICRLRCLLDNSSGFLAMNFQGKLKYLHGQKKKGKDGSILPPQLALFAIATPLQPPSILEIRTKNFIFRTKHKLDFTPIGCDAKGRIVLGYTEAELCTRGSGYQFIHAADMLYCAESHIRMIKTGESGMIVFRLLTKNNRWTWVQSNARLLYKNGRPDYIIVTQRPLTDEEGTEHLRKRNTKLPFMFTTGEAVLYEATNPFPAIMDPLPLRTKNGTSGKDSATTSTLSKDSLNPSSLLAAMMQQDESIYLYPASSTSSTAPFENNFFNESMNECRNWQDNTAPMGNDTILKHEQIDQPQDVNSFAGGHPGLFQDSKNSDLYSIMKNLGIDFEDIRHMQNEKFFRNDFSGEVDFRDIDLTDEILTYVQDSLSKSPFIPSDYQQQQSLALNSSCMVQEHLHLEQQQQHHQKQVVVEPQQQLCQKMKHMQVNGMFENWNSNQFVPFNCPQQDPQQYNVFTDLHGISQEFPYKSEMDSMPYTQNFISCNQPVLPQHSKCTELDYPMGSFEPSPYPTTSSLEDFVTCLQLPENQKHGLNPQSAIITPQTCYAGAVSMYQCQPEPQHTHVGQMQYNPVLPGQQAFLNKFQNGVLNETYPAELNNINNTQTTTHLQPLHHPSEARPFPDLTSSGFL
Quick reminder: number only, in nM, skip the unit.

These recorded examples may help you get a feel for the data.
Clc1cncc(-c2nc3c(c(NCCc4c[nH]c5ccccc45)n2)CNCC3)c1 [Example 27] = 4.47
Fc1cncc(-c2nc3c(c(NCCc4c[nH]c5cc(F)ccc45)n2)CNCC3)c1 [Example 31] = 5.13
Fc1cncc(-c2nc3c(c(NCCc4c[nH]c5ccc(F)cc45)n2)CNCC3)c1 [Example 32] = 6.03
Fc1cncc(-c2nc3c(c(OCCc4c[nH]c5ccccc45)n2)CCNC3)c1 [Example 11] = 3.16
Fc1cncc(-c2nc3c(c(NCCc4c[nH]c5ccc(F)cc45)n2)CCNC3)c1 [Example 30] = 26.3

IC50 reading for Clc1cncc(-c2nc3c(c(NCCc4c[nH]c5ccccc45)n2)CCNC3)c1 [Example 22] : 10

IC50 recorded for this compound, c1cncc(-c2nc3c(c(NCCc4c[nH]c5ccccc45)n2)CNC3)c1 [Example 10] , is 12.6

# compound Cc1cncc(-c2nc3c(c(NCCc4c[nH]c5ccccc45)n2)CNCC3)c1 [Example 26] ; its IC50 = 6.17

====

molecular target: CYP1A1 (Homo sapiens (Human), UniProt P04798); test: CYP1A1 inhibition assay (Promega P450-Glo, Cypex bactosomes); type: biochemical; conditions: direct CYP1A1 inhibition, Luciferin-CEE 30 μM, NADPH, 37° C., arithmetic mean of pIC50
Sequence (P04798 whole entry): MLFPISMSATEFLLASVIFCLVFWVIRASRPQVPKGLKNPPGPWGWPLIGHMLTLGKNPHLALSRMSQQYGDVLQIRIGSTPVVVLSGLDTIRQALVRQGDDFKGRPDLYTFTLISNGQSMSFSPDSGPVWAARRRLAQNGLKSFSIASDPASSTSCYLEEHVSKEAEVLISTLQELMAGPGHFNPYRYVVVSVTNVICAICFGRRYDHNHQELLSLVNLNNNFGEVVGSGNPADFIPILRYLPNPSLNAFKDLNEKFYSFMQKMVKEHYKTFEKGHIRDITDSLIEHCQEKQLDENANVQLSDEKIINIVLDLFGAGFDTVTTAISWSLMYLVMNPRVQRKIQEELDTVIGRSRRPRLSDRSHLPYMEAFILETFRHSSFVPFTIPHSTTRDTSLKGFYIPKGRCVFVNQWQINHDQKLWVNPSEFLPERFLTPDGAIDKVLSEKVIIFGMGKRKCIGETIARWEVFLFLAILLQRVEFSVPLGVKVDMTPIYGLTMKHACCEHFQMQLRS
Experimental readout: cyp1A1 pIC50
Lab note: record the figure alone, no unit after it.

Here's what some known entries look like.
Fc1cncc(-c2nc3c(c(OCCc4c[nH]c5ccccc45)n2)CCNC3)c1 = 6.40
Fc1cncc(-c2nc3c(c(NCCc4c[nH]c5ccc(F)cc45)n2)CCNC3)c1 = 6.5
Fc1cncc(-c2nc3c(c(NCCc4c[nH]c5ccccc45)n2)CCNC3)c1 = 7.00
CN1CCc2c(nc(-c3cncc(F)c3)nc2NCCc2c[nH]c3ccccc23)C1 = 6.50
Cn1nccc1C(=O)N1CCc2c(nc(-c3cncc(F)c3)nc2NCCc2c[nH]c3ccccc23)C1 = 6.00

# lookup: CS(=O)(=O)N1Cc2nc(-c3cncc(F)c3)nc(NCCc3c[nH]c4ccccc34)c2C1 on CYP1A1 (Homo sapiens (Human), UniProt P04798), cyp1A1 pIC50 = 6.20

// compound Fc1cncc(-c2nc3c(c(NCCc4c[nH]c5cc(F)ccc45)n2)CNCC3)c1 , assay CYP1A1 (Homo sapiens (Human), UniProt P04798), cyp1A1 pIC50 value: 7.2

# cyp1A1 pIC50 measured on CYP1A1 (Homo sapiens (Human), UniProt P04798) for item CC(C)N1CCc2c(nc(-c3cncc(F)c3)nc2NCCc2c[nH]c3ccccc23)C1 = 6.40

Measured cyp1A1 pIC50 for this entry c1cncc(-c2nc3c(c(NCCc4c[nH]c5ccccc45)n2)CCNC3)c1 on CYP1A1 (Homo sapiens (Human), UniProt P04798): 6.60

The recorded cyp1A1 pIC50 with CYP1A1 (Homo sapiens (Human), UniProt P04798) for CC1(C)c2nc(-c3cncc(F)c3)nc(NCCc3c[nH]c4ccccc34)c2CCN1Cc1ccccc1 [Example 18a] was 6.20

cyp1A1 pIC50 for CYP1A1 (Homo sapiens (Human), UniProt P04798) with input c1cncc(-c2nc3c(c(NCCc4c[nH]c5ccccc45)n2)CNC3)c1 equals 6.80
